# SYSTEM: Ribosomal RNA A-site
# PROTOCOL_NOTES: Displacement of F-NEO from human cytosolic rRNA-A site after 10 to 20 mins by fluorescence assay
# Format: nucleic-acid assay
VALUE_KIND: IC50 (µM)
Write the number in µM without appending the unit.

Past entries and their recorded results:
- NC[C@@H]1O[C@H](O[C@H]2[C@@H](O)[C@H](O[C@@H]3[C@@H](O)[C@H](N)C[C@H](N)[C@H]3O[C@H]3O[C@H](CN)[C@@H](O)[C@H](O)[C@H]3N)O[C@@H]2CO)[C@H](N)[C@@H](O)[C@@H]1O: 0.076
- NC[C@@H]1O[C@H](O[C@H]2[C@@H](O)[C@H](O[C@@H]3[C@@H](O)[C@H](N)C[C@H](N)[C@H]3O[C@H]3O[C@H](CN)[C@@H](O)[C@H](O)[C@H]3N)O[C@@H]2CNC(=O)CCCc2ccc3ccc4cccc5ccc2c3c45)[C@H](N)[C@@H](O)[C@@H]1O: 0.2
- NC[C@@H]1O[C@H](O[C@H]2[C@@H](O)[C@H](O[C@@H]3[C@@H](O)[C@H](N)C[C@H](N)[C@H]3O[C@H]3O[C@H](CN)[C@@H](O)[C@H](O)[C@H]3N)O[C@@H]2CNC(=O)CCc2ccc3ccc4cccc5ccc2c3c45)[C@H](N)[C@@H](O)[C@@H]1O: 0.447

Ask | Lookup: IC50 / Ribosomal RNA A-site / NC[C@@H]1O[C@H](O[C@H]2[C@@H](O)[C@H](O[C@@H]3[C@@H](O)[C@H](N)C[C@H](N)[C@H]3O[C@H]3O[C@H](CN)[C@@H](O)[C@H](O)[C@H]3N)O[C@@H]2CSCCNC(=O)CCc2ccc3ccc4cccc5ccc2c3c45)[C@H](N)[C@@H](O)[C@@H]1O
Reply | 0.204

* * *

Recorded MIC by entry
# Test system: Staphylococcus aureus
# PROTOCOL_NOTES: Antibacterial activity against NEO-sensitive Staphylococcus aureus C1 after 15 to 20 hrs by CLSI protocol based microdilution assay
# Format: functional
Quick note: give the figure in µM, leave out the unit.

Answered examples (3):
* NC[C@@H]1O[C@H](O[C@H]2[C@@H](O)[C@H](O[C@@H]3[C@@H](O)[C@H](N)C[C@H](N)[C@H]3O[C@H]3O[C@H](CN)[C@@H](O)[C@H](O)[C@H]3N)O[C@@H]2CSCCNC(=O)Cc2ccc3ccc4cccc5ccc2c3c45)[C@H](N)[C@@H](O)[C@@H]1O | 12.5
* NC[C@@H]1O[C@H](O[C@H]2[C@@H](O)[C@H](O[C@@H]3[C@@H](O)[C@H](N)C[C@H](N)[C@H]3O[C@H]3O[C@H](CN)[C@@H](O)[C@H](O)[C@H]3N)O[C@@H]2CNC(=O)CCc2ccc3ccc4cccc5ccc2c3c45)[C@H](N)[C@@H](O)[C@@H]1O | 25
* NC[C@@H]1O[C@H](O[C@H]2[C@@H](O)[C@H](O[C@@H]3[C@@H](O)[C@H](N)C[C@H](N)[C@H]3O[C@H]3O[C@H](CN)[C@@H](O)[C@H](O)[C@H]3N)O[C@@H]2CO)[C@H](N)[C@@H](O)[C@@H]1O | 3.2

Let us move to another entry and its MIC.
Ask | Please look up its MIC: NC[C@@H]1O[C@H](O[C@H]2[C@@H](O)[C@H](O[C@@H]3[C@@H](O)[C@H](N)C[C@H](N)[C@H]3O[C@H]3O[C@H](CN)[C@@H](O)[C@H](O)[C@H]3N)O[C@@H]2CSCCNC(=O)CCc2ccc3ccc4cccc5ccc2c3c45)[C@H](N)[C@@H](O)[C@@H]1O
Reply | 25
